Biological target: T1, TNFR1 (Homo sapiens, UniProt P19438)
T1 chain: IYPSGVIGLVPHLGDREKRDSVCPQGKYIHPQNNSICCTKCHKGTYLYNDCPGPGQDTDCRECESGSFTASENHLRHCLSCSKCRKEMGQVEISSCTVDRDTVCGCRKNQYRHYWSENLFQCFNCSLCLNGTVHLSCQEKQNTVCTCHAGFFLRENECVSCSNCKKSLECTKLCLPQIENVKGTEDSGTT
Assay: yeast display SC50
measurement_name: apparent Kd (screen) (nM)

[
  {
    "binder": "K73T (designed binder) SMEEEVEKAAKEYEKKKKEAIEKHLEKLKAKDKEAAERFLKELEEAAKEYAKDEAKTMSEEEAKRRAKKYKETVLLSELSEEEQKEIKEAEEKLVRTILKYVEEAAK",
    "value_reported": 13.8
  }
]

1. E3W (designed binder) SMWEEVEKAAKEYEKKKKEAIEKHLEKLKAKDKEAAERFLKELEEAAKEYAKDEAKTMSEEEAKRRAKKYKEKVLLSELSEEEQKEIKEAEEKLVRTILKYVEEAAK
2. A30I (designed binder) SMEEEVEKAAKEYEKKKKEAIEKHLEKLKIKDKEAAERFLKELEEAAKEYAKDEAKTMSEEEAKRRAKKYKEKVLLSELSEEEQKEIKEAEEKLVRTILKYVEEAAK
3. V95Q (designed binder) SMEEEVEKAAKEYEKKKKEAIEKHLEKLKAKDKEAAERFLKELEEAAKEYAKDEAKTMSEEEAKRRAKKYKEKVLLSELSEEEQKEIKEAEEKLQRTILKYVEEAAK
**Q:** Hi! Can you put these in order of apparent Kd (screen), lowest number first? Quick reminder: the answer is the labels in the order asked.
**A:** 2, 3, 1
(2: 0.653 nM, 3: 11.4 nM, 1: 22.2 nM)
